Measured values drawn from patent US20100280227A1 for this set.

target: T1, human BR3 extracellular domain (human, UniProt Q96RJ3 1-61); assay: BIAcore, Fab over immobilised target
T1 construct: biotinylated where used as tracer; also called hBR3-ECD; BR3-ECD
Listed next: entries and their corresponding Kd.
Param answer (str): number followed by unit.

chimeric 2.1 Fab (Fab, V domains shown, Fab with murine variable domains; also called Ch 2.1 Fab) VH: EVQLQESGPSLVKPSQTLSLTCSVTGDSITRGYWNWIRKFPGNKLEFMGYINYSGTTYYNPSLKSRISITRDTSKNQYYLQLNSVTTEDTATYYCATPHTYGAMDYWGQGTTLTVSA VL: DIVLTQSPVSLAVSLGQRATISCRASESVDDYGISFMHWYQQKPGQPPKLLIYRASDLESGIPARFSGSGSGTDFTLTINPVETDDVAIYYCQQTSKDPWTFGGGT :: 115 pM

Now look at this entry.
Hu9.1-70 Fab (Fab, V domains shown, Fab) VH: EVQLVESGGGLVQPGGSLRLSCAASDSPRSGYYISWVRQAPGKGLEWVGFIRDKANGYTTEYNPSVKGRFTISADTSKNTAYLQMNSLRAEDTAVYYCAQVRRALDYWGQGTLVTVSS VL: DIQMTQSPSSLSASVGDRVTITCKSSQSLLYSSNQNNYLAWYQQKPGKAPKLLIYWASIRDSGVPSRFSGSGSGTDFTLTISSLQPEDFATYYCQQYYTYPYTFGQGTKVEIKR has a reported Kd of 150 pM
